- target system: T1, human programmed cell death protein 1 (hPD-1) C93S (aa 24-167) (Homo sapiens, UniProt Q15116, C93S)
- T1 construct: made as a fusion with a TEV site and human Fc; the Fc was cut off with TEV protease; source: Expi293F, purified (Protein A, TEV cleavage of Fc, SEC; monomer fractions); not shown: Fc (human), C-terminal, cleaved
- T1 sequence (Q15116 24-167 C93S): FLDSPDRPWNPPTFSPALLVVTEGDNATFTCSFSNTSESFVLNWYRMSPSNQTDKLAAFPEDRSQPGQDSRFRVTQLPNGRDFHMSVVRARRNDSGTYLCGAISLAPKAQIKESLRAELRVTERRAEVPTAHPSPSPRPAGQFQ
- run description: SPR; Carterra LSA; Fab from the ammonium sulfate precipitate of the culture supernatant immobilised on a NiHC200M chip; hPD-1 (1-1024 nM) or mPD-1-Fc (4-1024 nM) as analyte, fourfold dilution series, no regeneration; HBS-EP pH 7.4, 25 °C; medians over the spots of a construct, KD = koff/kon
- experimental parameters: one partner purified
Values of kon strictly less than 8000 M⁻¹ s⁻¹ map to label 1, and values of at least 8000 M⁻¹ s⁻¹ map to label 0.

>>> label("toripalimab Fab L.V99I (Fab, V domains shown, as the heavy chain of Sm3; light chain of Sm3 with this change; numbers count from the chain's first residue; source: Brevibacillus, culture supernatant (ammonium sulfate precipitate); not shown: 6xHis, C-terminal, kept; 6xHN, C-terminal, kept) VH: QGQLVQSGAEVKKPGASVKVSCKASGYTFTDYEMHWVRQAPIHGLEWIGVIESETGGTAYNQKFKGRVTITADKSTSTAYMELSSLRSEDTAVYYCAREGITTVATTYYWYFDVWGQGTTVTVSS VL: DVVMTQSPLSLPVTLGQPASISCRSSQSIVHSNGNTYLEWYLQKPGQSPQLLIYKVSNRFSGVPDRFSGSGSGTDFTLKISRVEAEDVGVYYCFQGSHIPLTFGQGTKLEIK")
"label 0"
>>> label("toripalimab Fab L.S97A (Fab, V domains shown, as the heavy chain of Sm3; light chain of Sm3 with this change; numbers count from the chain's first residue; source: Brevibacillus, culture supernatant (ammonium sulfate precipitate); not shown: 6xHis, C-terminal, kept; 6xHN, C-terminal, kept) VH: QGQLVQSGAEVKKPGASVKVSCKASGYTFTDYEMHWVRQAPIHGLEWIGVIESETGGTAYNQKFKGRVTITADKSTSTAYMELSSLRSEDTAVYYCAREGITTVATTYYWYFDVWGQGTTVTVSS VL: DVVMTQSPLSLPVTLGQPASISCRSSQSIVHSNGNTYLEWYLQKPGQSPQLLIYKVSNRFSGVPDRFSGSGSGTDFTLKISRVEAEDVGVYYCFQGAHVPLTFGQGTKLEIK")
"label 0"

Problem: For the binder toripalimab Fab H.V104A (Fab, V domains shown, heavy chain of Sm3 with this change; numbers count from the chain's first residue; as the light chain of Sm3; source: Brevibacillus, culture supernatant (ammonium sulfate precipitate); not shown: 6xHis, C-terminal, kept; 6xHN, C-terminal, kept) VH: QGQLVQSGAEVKKPGASVKVSCKASGYTFTDYEMHWVRQAPIHGLEWIGVIESETGGTAYNQKFKGRVTITADKSTSTAYMELSSLRSEDTAVYYCAREGITTAATTYYWYFDVWGQGTTVTVSS VL: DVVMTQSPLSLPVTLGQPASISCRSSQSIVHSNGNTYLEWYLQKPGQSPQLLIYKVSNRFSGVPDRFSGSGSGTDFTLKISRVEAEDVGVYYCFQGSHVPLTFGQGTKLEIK , is kon under 8000 M⁻¹ s⁻¹?
label 0

Problem: For the binder toripalimab Fab H.E33Y (Fab, V domains shown, heavy chain of Sm3 with this change; numbers count from the chain's first residue; as the light chain of Sm3; source: Brevibacillus, culture supernatant (ammonium sulfate precipitate); not shown: 6xHis, C-terminal, kept; 6xHN, C-terminal, kept) VH: QGQLVQSGAEVKKPGASVKVSCKASGYTFTDYYMHWVRQAPIHGLEWIGVIESETGGTAYNQKFKGRVTITADKSTSTAYMELSSLRSEDTAVYYCAREGITTVATTYYWYFDVWGQGTTVTVSS VL: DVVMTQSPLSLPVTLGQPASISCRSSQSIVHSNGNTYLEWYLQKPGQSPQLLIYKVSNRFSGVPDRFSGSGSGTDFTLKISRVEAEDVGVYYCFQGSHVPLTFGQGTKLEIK , is kon under 8000 M⁻¹ s⁻¹?
label 0

Problem: For the binder toripalimab Fab, wild type (Fab, V domains shown, toripalimab Fab heavy chain; toripalimab stands in PDB 6JBT; toripalimab Fab light chain; also called WT; source: Brevibacillus, culture supernatant (ammonium sulfate precipitate); not shown: 6xHis, C-terminal, kept; 6xHN, C-terminal, kept) VH: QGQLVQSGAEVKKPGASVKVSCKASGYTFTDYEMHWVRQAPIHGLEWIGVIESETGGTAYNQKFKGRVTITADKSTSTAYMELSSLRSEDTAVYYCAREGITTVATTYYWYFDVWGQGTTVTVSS VL: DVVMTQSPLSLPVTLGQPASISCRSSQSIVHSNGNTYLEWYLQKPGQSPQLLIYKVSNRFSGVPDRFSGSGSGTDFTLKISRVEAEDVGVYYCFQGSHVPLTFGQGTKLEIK , is kon under 8000 M⁻¹ s⁻¹?
label 0

Problem: For the binder toripalimab Fab L.P100H (Fab, V domains shown, as the heavy chain of Sm3; light chain of Sm3 with this change; numbers count from the chain's first residue; source: Brevibacillus, culture supernatant (ammonium sulfate precipitate); not shown: 6xHis, C-terminal, kept; 6xHN, C-terminal, kept) VH: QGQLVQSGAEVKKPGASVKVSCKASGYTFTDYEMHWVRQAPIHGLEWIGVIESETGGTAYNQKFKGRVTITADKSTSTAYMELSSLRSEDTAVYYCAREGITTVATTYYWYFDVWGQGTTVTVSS VL: DVVMTQSPLSLPVTLGQPASISCRSSQSIVHSNGNTYLEWYLQKPGQSPQLLIYKVSNRFSGVPDRFSGSGSGTDFTLKISRVEAEDVGVYYCFQGSHVHLTFGQGTKLEIK , is kon under 8000 M⁻¹ s⁻¹?
label 1

Problem: For the binder toripalimab Fab L.F94A (Fab, V domains shown, as the heavy chain of Sm3; light chain of Sm3 with this change; numbers count from the chain's first residue; source: Brevibacillus, culture supernatant (ammonium sulfate precipitate); not shown: 6xHis, C-terminal, kept; 6xHN, C-terminal, kept) VH: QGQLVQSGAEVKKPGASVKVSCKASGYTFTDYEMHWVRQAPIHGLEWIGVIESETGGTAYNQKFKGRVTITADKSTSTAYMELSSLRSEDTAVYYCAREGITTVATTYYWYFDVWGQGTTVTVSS VL: DVVMTQSPLSLPVTLGQPASISCRSSQSIVHSNGNTYLEWYLQKPGQSPQLLIYKVSNRFSGVPDRFSGSGSGTDFTLKISRVEAEDVGVYYCAQGSHVPLTFGQGTKLEIK , is kon under 8000 M⁻¹ s⁻¹?
label 1

Problem: For the binder toripalimab Fab L.P100W (Fab, V domains shown, as the heavy chain of Sm3; light chain of Sm3 with this change; numbers count from the chain's first residue; source: Brevibacillus, culture supernatant (ammonium sulfate precipitate); not shown: 6xHis, C-terminal, kept; 6xHN, C-terminal, kept) VH: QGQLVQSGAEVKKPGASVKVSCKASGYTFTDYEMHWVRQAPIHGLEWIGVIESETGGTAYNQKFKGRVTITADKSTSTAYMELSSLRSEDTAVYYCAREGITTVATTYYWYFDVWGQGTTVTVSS VL: DVVMTQSPLSLPVTLGQPASISCRSSQSIVHSNGNTYLEWYLQKPGQSPQLLIYKVSNRFSGVPDRFSGSGSGTDFTLKISRVEAEDVGVYYCFQGSHVWLTFGQGTKLEIK , is kon under 8000 M⁻¹ s⁻¹?
label 1

Problem: For the binder toripalimab Fab L.N35A (Fab, V domains shown, as the heavy chain of Sm3; light chain of Sm3 with this change; numbers count from the chain's first residue; source: Brevibacillus, culture supernatant (ammonium sulfate precipitate); not shown: 6xHis, C-terminal, kept; 6xHN, C-terminal, kept) VH: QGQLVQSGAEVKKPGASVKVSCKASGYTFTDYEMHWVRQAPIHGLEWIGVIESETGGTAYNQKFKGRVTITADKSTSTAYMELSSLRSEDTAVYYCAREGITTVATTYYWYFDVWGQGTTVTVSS VL: DVVMTQSPLSLPVTLGQPASISCRSSQSIVHSNGATYLEWYLQKPGQSPQLLIYKVSNRFSGVPDRFSGSGSGTDFTLKISRVEAEDVGVYYCFQGSHVPLTFGQGTKLEIK , is kon under 8000 M⁻¹ s⁻¹?
label 1

Problem: For the binder toripalimab Fab H.S53Y (Fab, V domains shown, heavy chain of Sm3 with this change; numbers count from the chain's first residue; as the light chain of Sm3; source: Brevibacillus, culture supernatant (ammonium sulfate precipitate); not shown: 6xHis, C-terminal, kept; 6xHN, C-terminal, kept) VH: QGQLVQSGAEVKKPGASVKVSCKASGYTFTDYEMHWVRQAPIHGLEWIGVIEYETGGTAYNQKFKGRVTITADKSTSTAYMELSSLRSEDTAVYYCAREGITTVATTYYWYFDVWGQGTTVTVSS VL: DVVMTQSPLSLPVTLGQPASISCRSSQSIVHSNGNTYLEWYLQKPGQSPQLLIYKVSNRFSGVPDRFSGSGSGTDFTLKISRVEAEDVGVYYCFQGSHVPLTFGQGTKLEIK , is kon under 8000 M⁻¹ s⁻¹?
label 0
